Cited source: ChEMBL document CHEMBL5113379

Tested on: Hepatitis B virus
Test: Antiviral activity against HBV infected in mouse AML12HBV10 cells assessed as reduction in viral replication incubated for 48 hrs and measured by [alpha-32P]UTP-labeled radio-probe based dot blot hybridization assay
Format: functional, organism-based
Conditions: Hepatitis B virus, AML12HBV10, 48 h
Measured EC50 by item

compound	EC50
O=C(Nc1ccc(F)c(Cl)c1)N1CCS(=O)(=O)c2ccccc21	> 10 µM
O=C(Nc1ccc(F)c(Cl)c1)n1[nH]c(=O)c2ccccc21	> 10 µM
O=C(Nc1ccc2ncsc2c1)c1cccc2c1OCCO2	> 10 µM
O=C1CC2CC1CN2C(=O)Nc1ccc(F)c(Cl)c1 (centres undefined)	> 10 µM
O=C(Nc1ccc(F)c(Cl)c1)N1CCOc2cccnc21	> 10 µM
O=C(Nc1ccc(F)c(Cl)c1)c1cccc2c1OC(F)(F)O2	0.11 µM
O=C(Nc1ccc(F)c(Cl)c1)c1cccc2ccoc12	0.73 µM
O=C1CCN(C(=O)Nc2ccc(F)c(C(F)(F)F)c2)[C@@H]2CCCC[C@H]12	0.97 µM
O=C1CC2CCC(C1)N2C(=O)Nc1ccc(F)c(Cl)c1	> 10 µM
